In this section we review reported protein stability index values for a set of variants.
B1: SNAP91 (parent)
chain: FSTDAFSSPPQGASPVPESSLTAD

variants of: B1; experiment: protein stability index of a GFP-peptide fusion (GPS, HEK-293T) (PSI 1-6); higher = more stable; conditions: c terminus: a fixed tail appended;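 note: lentivirally expressed fusions sorted by FACS into six bins by GFP to DsRed ratio, PSI derived from sequencing read proportions per bin multiplied by bin number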
Form rule: numeric answer, no unit written next to it.

{"columns": ["variant", "protein stability index"],
 "data": [
  ["L21M", 3.11]
]}

// protein stability index lookup, variant = `E18W` , result: 2.26

// protein stability index lookup, variant = `T3H` , result: 5.4

// protein stability index lookup, variant = `P10H` , result: 2.29

// protein stability index lookup, variant = `D4R` , result: 2.37

// protein stability index lookup, variant = `S8H` , result: 2.75

Data origin, for the record: the supplement of paper PMC10567573
